Target: KRAS (G12D)::SOS1 (Homo sapiens (Human), UniProt P01116, G12D)
Sequence (P01116 other isoform, or with tags, fused parts or gaps G12D): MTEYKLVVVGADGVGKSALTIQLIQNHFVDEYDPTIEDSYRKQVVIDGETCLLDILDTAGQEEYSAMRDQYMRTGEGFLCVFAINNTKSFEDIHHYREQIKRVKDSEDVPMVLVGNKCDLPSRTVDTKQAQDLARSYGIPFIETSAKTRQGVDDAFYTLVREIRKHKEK
Assay: KRAS::SOS1 AlphaScreen binding assay, KRAS G12D
ATTRIBUTE MEASURED: IC50 (nM)

These recorded examples may help you get a feel for the data.
MOLECULE: C[C@H](Oc1cc([C@H]2CCOC2)nc(-c2noc3c2CCC[C@@]32CCCc3sc(N)c(C#N)c32)n1)[C@@H]1CCCN1C
UNITS TEXT: nM
OBSERVED MEASUREMENT: 1
--
MOLECULE: C[C@H](Oc1cc(N2CCNCC23CCOC3)nc(-c2onc3c2CCC[C@@]32CCCc3sc(N)c(C#N)c32)n1)[C@@H]1CCCN1C (stereo partly drawn)
UNITS TEXT: nM
OBSERVED MEASUREMENT: 1

(1) C[C@H](O)Cn1ccc(-c2cc(O[C@@H](C)[C@@H]3CCCN3C)nc(-c3noc4c3CCC[C@@]43CCCc4sc(N)c(C#N)c43)n2)n1
(2) C[C@H](Oc1cc(-c2ccn(-c3ccsc3)n2)nc(-c2noc3c2CCC[C@@]32CCCc3sc(N)c(C#N)c32)n1)[C@@H]1CCCN1C
(3) C[C@H](Oc1cc(-n2cc3ccn(C[C@H]4CCOC4)c(=O)c3n2)nc(-c2noc3c2CCC[C@@]32CCCc3sc(N)c(C#N)c32)n1)[C@@H]1CCCN1C
(4) C[C@H](Oc1cc(-n2ccnc2Cl)nc(-c2noc3c2CCC[C@@]32CCCc3sc(N)c(C#N)c32)n1)[C@@H]1CCCN1C
Ordering criterion: IC50; begin with the maximum. Return the labels ranked in the requested order, please. 2, 4, 3, 1
